experimental-protocol: Cytotoxicity against mouse J774.1 cells
Format: cell-based
Please respond with reported log(1/C) for every item in the list.
// print number alone

Q: Could you share which log(1/C) value was measured for COc1ccc(C(=O)N[C@@H](c2ccccc2)[C@@H](O)C(=O)O[C@H]2C[C@@]3(O)[C@@H](OC(=O)c4ccccc4)[C@@H]4[C@]5(OC(C)=O)CO[C@@H]5C[C@H](O)[C@@]4(C)C(=O)[C@H](OC(C)=O)C(=C2C)C3(C)C)c(OC)c1 ?
A: 7.12

Q: Could you share which log(1/C) value was measured for CC(=O)O[C@H]1C(=O)[C@@]2(C)[C@H]([C@H](OC(=O)c3ccccc3)[C@]3(O)C[C@H](OC(=O)[C@H](O)[C@@H](NC(=O)c4ccc(F)cc4)c4ccccc4)C(C)=C1C3(C)C)[C@]1(OC(C)=O)CO[C@@H]1C[C@@H]2O ?
A: 7.68

Q: Could you share which log(1/C) value was measured for CC(=O)O[C@H]1C(=O)[C@@]2(C)[C@H]([C@H](OC(=O)c3ccccc3)[C@]3(O)C[C@H](OC(=O)[C@H](O)[C@@H](NC(=O)c4ccc(F)cc4F)c4ccccc4)C(C)=C1C3(C)C)[C@]1(OC(C)=O)CO[C@@H]1C[C@@H]2O ?
A: 7.59

Q: Could you share which log(1/C) value was measured for CCc1ccc(C(=O)N[C@@H](c2ccccc2)[C@@H](O)C(=O)O[C@H]2C[C@@]3(O)[C@@H](OC(=O)c4ccccc4)[C@@H]4[C@]5(OC(C)=O)CO[C@@H]5C[C@H](O)[C@@]4(C)C(=O)[C@H](OC(C)=O)C(=C2C)C3(C)C)cc1 ?
A: 7.82

Q: Could you share which log(1/C) value was measured for CC(=O)O[C@H]1C(=O)[C@@]2(C)[C@H]([C@H](OC(=O)c3ccccc3)[C@]3(O)C[C@H](OC(=O)[C@H](O)[C@@H](NC(=O)c4ccc(-c5ccccc5)cc4)c4ccccc4)C(C)=C1C3(C)C)[C@]1(OC(C)=O)CO[C@@H]1C[C@@H]2O ?
A: 7.31

Q: Could you share which log(1/C) value was measured for CC(=O)O[C@H]1C(=O)[C@@]2(C)[C@H]([C@H](OC(=O)c3ccccc3)[C@]3(O)C[C@H](OC(=O)[C@H](O)[C@@H](NC(=O)c4ccc5ccccc5c4)c4ccccc4)C(C)=C1C3(C)C)[C@]1(OC(C)=O)CO[C@@H]1C[C@@H]2O ?
A: 7.68

Q: Could you share which log(1/C) value was measured for CC(=O)O[C@H]1C(=O)[C@@]2(C)[C@H]([C@H](OC(=O)c3ccccc3)[C@]3(O)C[C@H](OC(=O)[C@H](O)[C@@H](NC(=O)/C=C/c4ccccc4)c4ccccc4)C(C)=C1C3(C)C)[C@]1(OC(C)=O)CO[C@@H]1C[C@@H]2O ?
A: 7.52

Q: Could you share which log(1/C) value was measured for CC(=O)O[C@H]1C(=O)[C@@]2(C)[C@H]([C@H](OC(=O)c3ccccc3)[C@]3(O)C[C@H](OC(=O)[C@H](O)[C@@H](NC(=O)c4ccc(C(C)(C)C)cc4)c4ccccc4)C(C)=C1C3(C)C)[C@]1(OC(C)=O)CO[C@@H]1C[C@@H]2O ?
A: 7.62

----------
experimental-protocol: Cytotoxicity against mouse J7.DEF.3 cells
Format: cell-based
Please respond with reported log(1/C) for every item in the list.
// print number alone

Q: Could you share which log(1/C) value was measured for CC(=O)O[C@H]1C(=O)[C@@]2(C)[C@H]([C@H](OC(=O)c3ccccc3)[C@]3(O)C[C@H](OC(=O)[C@H](O)[C@@H](NC(=O)c4ccccc4)c4ccccc4)C(C)=C1C3(C)C)[C@]1(OC(C)=O)CO[C@@H]1C[C@@H]2O [PACLITAXEL] ?
A: 7.52

Q: Could you share which log(1/C) value was measured for CC(=O)O[C@H]1C(=O)[C@@]2(C)[C@H]([C@H](OC(=O)c3ccccc3)[C@]3(O)C[C@H](OC(=O)[C@H](O)[C@@H](NC(=O)c4ccc(Cl)cc4)c4ccccc4)C(C)=C1C3(C)C)[C@]1(OC(C)=O)CO[C@@H]1C[C@@H]2O ?
A: 7.59

Origin of values: ChEMBL document CHEMBL1154484
